system: MCF-7 cells (breast cancer); assay: MTT cytotoxicity assay, MCF-7; assay type: cell-based, human; conditions: Homo sapiens, MCF7, 48 h, MTT, 48 h; read-out: IC50 against MCF-7
pIC50: −log10 of the molar value.
Outcome label depends on pIC50 relative to 4: at/above gives 1 (yes), below gives 0 (no).

# compound, category label
records = [
    ("COc1cc(/C=C/C(=O)CCc2ccccc2)ccc1O", "1 (yes)"),
    ("COc1ccc(/C=C/C(=O)CCc2ccc(O)cc2)cc1O", "0 (no)"),
    ("COc1cccc2c1C(=O)c1c(O)c3c(c(O)c1C2=O)C[C@@](O)(C(=O)CO)C[C@@H]3O[C@H]1C[C@H](N)[C@H](O)[C@H](C)O1 [DOX control (+), doxorubicin, reference compound]", "1 (yes)"),
    ("COc1cc(/C=C/C(=O)CCc2ccc(O)cc2)ccc1O", "1 (yes)"),
    ("COc1ccc(/C=C/C(=O)CCc2ccccc2)cc1", "1 (yes)"),
    ("O=C(/C=C/c1ccccc1)CCc1ccc(O)cc1", "1 (yes)"),
    ("COc1ccc(/C=C/C(=O)CCc2ccccc2)cc1O", "1 (yes)"),
    ("O=C(/C=C/c1ccc(O)c(O)c1)CCc1ccc(O)cc1", "0 (no)"),
    ("O=C(/C=C/c1ccc(O)cc1)CCc1ccc(O)cc1", "1 (yes)"),
    ("O=C(/C=C/c1ccc(O)c(O)c1)CCc1ccccc1", "0 (no)"),
]

###

Catalogue of melting point values
metric name: melting point

# compound smiles, metric name, value reported
data = [
    ("COc1cc(/C=C/C(=O)CCc2ccc(O)cc2)ccc1O", "melting point", "131 to 132 °C"),
    ("COc1ccc(/C=C/C(=O)CCc2ccccc2)cc1", "melting point", "95 to 96 °C"),
    ("COc1ccc(/C=C/C(=O)CCc2ccccc2)cc1O", "melting point", "94 to 95 °C"),
    ("COc1cc(/C=C/C(=O)CCc2ccccc2)ccc1O", "melting point", "89 to 90 °C"),
    ("O=C(/C=C/c1ccccc1)CCc1ccc(O)cc1", "melting point", "96 to 97 °C"),
    ("O=C(/C=C/c1ccc(O)c(O)c1)CCc1ccc(O)cc1", "melting point", "202 to 203 °C"),
    ("O=C(/C=C/c1ccc(O)cc1)CCc1ccc(O)cc1", "melting point", "146 to 147 °C"),
    ("COc1ccc(/C=C/C(=O)CCc2ccc(O)cc2)cc1O", "melting point", "130 to 131 °C"),
    ("O=C(/C=C/c1ccc(O)cc1)CCc1ccccc1", "melting point", "136 to 137 °C"),
]

###

test system: U87-MG cells (human glioblastoma); assay: MTT cytotoxicity assay, U87-MG; format: cell-based; conditions: SI = IC50 normal cells (HPAEpiC)/IC50 U87-MG
Labelling field: enter satisfied if recorded SI, U87-MG cells is less than 0.4. Enter not satisfied if it equals or exceeds that cut-off.

# compound, category label
data = [
    ("O=C(/C=C/c1ccccc1)CCc1ccccc1 [Compound 5a, (E)-1,5-diphenylpent-1-en-3-one]", "not satisfied"),
    ("COc1cccc2c1C(=O)c1c(O)c3c(c(O)c1C2=O)C[C@@](O)(C(=O)CO)C[C@@H]3O[C@H]1C[C@H](N)[C@H](O)[C@H](C)O1 [DOX control (+), doxorubicin, reference compound]", "not satisfied"),
    ("O=C(/C=C/c1ccc(O)c(O)c1)CCc1ccc(O)cc1", "not satisfied"),
    ("O=C(/C=C/c1ccc(O)cc1)CCc1ccccc1", "satisfied"),
    ("COc1ccc(/C=C/C(=O)CCc2ccccc2)cc1", "not satisfied"),
    ("COc1ccc(/C=C/C(=O)CCc2ccccc2)cc1O", "satisfied"),
    ("COc1cc(/C=C/C(=O)CCc2ccccc2)ccc1O", "not satisfied"),
    ("O=C(/C=C/c1ccc(O)cc1)CCc1ccc(O)cc1", "satisfied"),
]

###

Catalogue of pIC50 values
system: PC-3 cells (prostate cancer); assay: MTT cytotoxicity assay, PC-3; assay type: cell-based, human; details: MTT, 48 h; read-out: IC50 against PC-3
pIC50: −log10 of the molar value.

# molecule, pIC50
measured = [
    ("COc1cc(/C=C/C(=O)CCc2ccccc2)ccc1O [Compound 5d]", 4.68),
    ("O=C(/C=C/c1ccc(O)cc1)CCc1ccccc1 [Compound 5b]", 4.66),
]

###

Catalogue of SI, U87-MG cells values
Tested on: U87-MG cells (human glioblastoma)
Assay: MTT cytotoxicity assay, U87-MG
Format: cell-based
Conditions: SI = IC50 normal cells (HPAEpiC)/IC50 U87-MG
Method: GBM (U87-MG), breast cancer (MCF-7), prostate carcinoma (PC-3), and lung epithelium (HPAEpiC) cell lines were used to assess the cytotoxic action potential of compounds 5a–5l. […] The 3-(4,5-dimethylthiazol-2-yl)-2,5-diphenyltetrazolium bromide (MTT) method is a widely used colorimetric method for the quantitative determination of cell viability. […] Cell viability is then determined spectrophotometrically. […]
metric name: SI, U87-MG cells

# compound, value reported
measured = [
    ("O=C(/C=C/c1ccccc1)CCc1ccc(O)cc1 [Compound 5g]", 0.17),
    ("COc1ccc(/C=C/C(=O)CCc2ccc(O)cc2)cc1O [Compound 5k]", 1.32),
    ("O=C(/C=C/c1ccc(O)c(O)c1)CCc1ccccc1 [Compound 5f]", 1.29),
    ("COc1cc(/C=C/C(=O)CCc2ccc(O)cc2)ccc1O [Compound 5j]", 1.23),
    ("COc1ccc(/C=C/C(=O)CCc2ccc(O)cc2)cc1 [Compound 5i]", 0.06),
]

###

test system: MCF-7 cells (breast cancer); test: MTT cytotoxicity assay, MCF-7; type: cell-based, human; details: SI = IC50 normal cells (HPAEpiC)/IC50 MCF-7
Binning rule for recorded SI, MCF-7 cells: class 0 = under 1, class 1 = from 1 up to 2, class 2 = 2 and over

# compound, category label
data = [
    ("COc1ccc(/C=C/C(=O)CCc2ccccc2)cc1O", "class 1"),
    ("O=C(/C=C/c1ccccc1)CCc1ccc(O)cc1", "class 1"),
    ("COc1cc(/C=C/C(=O)CCc2ccc(O)cc2)ccc1O", "class 2"),
    ("COc1ccc(/C=C/C(=O)CCc2ccc(O)cc2)cc1O", "class 0"),
    ("COc1cc(/C=C/C(=O)CCc2ccccc2)ccc1O", "class 0"),
    ("O=C(/C=C/c1ccc(O)cc1)CCc1ccccc1", "class 0"),
    ("COc1cccc2c1C(=O)c1c(O)c3c(c(O)c1C2=O)C[C@@](O)(C(=O)CO)C[C@@H]3O[C@H]1C[C@H](N)[C@H](O)[C@H](C)O1 [DOX control (+), doxorubicin, reference compound]", "class 2"),
    ("COc1ccc(/C=C/C(=O)CCc2ccc(O)cc2)cc1", "class 2"),
    ("O=C(/C=C/c1ccc(O)c(O)c1)CCc1ccccc1", "class 0"),
    ("O=C(/C=C/c1ccccc1)CCc1ccccc1 [Compound 5a, (E)-1,5-diphenylpent-1-en-3-one]", "class 2"),
    ("O=C(/C=C/c1ccc(O)c(O)c1)CCc1ccc(O)cc1", "class 1"),
    ("COc1ccc(/C=C/C(=O)CCc2ccccc2)cc1", "class 1"),
    ("O=C(/C=C/c1ccc(O)cc1)CCc1ccc(O)cc1", "class 1"),
]
